System: Lgr5 (MarsCy1-Lgr5-EGFP, U2OS)
ASSAY_NOTES: cell-surface Lgr5 expression (SCi1 fluorescence, background-subtracted) relative to WT DMSO (fold of DMSO control); higher = more Lgr5 at the plasma membrane, active = hit call of the paper
STATED_CONDITIONS: U2OS MarsCy1-Lgr5-EGFP stable; treatment time: overnight; 16 µM; library: Johns Hopkins Clinical Compound Library
Structures can show the parent of a compound that is named as a salt. In all, about 1,200 compounds went through this assay and about 50 (4%) showed activity. The sample as a whole holds a higher share of actives than the screen did.
Record 1 whenever cell-surface Lgr5 expression is at 1 or higher; record -1 when lower.

Query block: Is cell-surface Lgr5 expression at least 1? Consider NCCC[C@H](N)C(=O)O
Result block: -1

Query block: Is cell-surface Lgr5 expression at least 1? Consider COc1cc2c(cc1OC)C(=O)C(CC1CCN(Cc3ccccc3)CC1)C2 (stereo not drawn) [Donepezil hydrochloride]
Result block: -1

Query block: Is cell-surface Lgr5 expression at least 1? Consider CCC(NC(C)C)C(O)c1ccc(O)c(O)c1 (stereo not drawn) [Isoetharine mesylate]
Result block: 1

Query block: Is cell-surface Lgr5 expression at least 1? Consider C=C1C[C@H]2[C@@H]3C=C(C)C4=CC(=O)CC[C@]4(C)[C@H]3CC[C@]2(C)[C@@]1(OC(C)=O)C(C)=O [Melengestrol acetate]
Result block: 1

Query block: Is cell-surface Lgr5 expression at least 1? Consider NC[C@H](O)c1ccc(O)c(O)c1 [Arterenol (Norepinephrine)]
Result block: 1

Query block: Is cell-surface Lgr5 expression at least 1? Consider CCNC(=O)CCC/C=C\C[C@@H]1[C@@H](/C=C/[C@@H](O)CCc2ccccc2)[C@H](O)C[C@@H]1O
Result block: 1

Query block: Is cell-surface Lgr5 expression at least 1? Consider CC(=O)OCC(=O)[C@@]1(O)CC[C@H]2[C@@H]3CCC4=CC(=O)CC[C@]4(C)[C@@]3(F)[C@@H](O)C[C@@]21C
Result block: 1

Query block: Is cell-surface Lgr5 expression at least 1? Consider CC1(C)O[C@@H]2C[C@H]3[C@@H]4CCC5=CC(=O)CC[C@]5(C)[C@@]4(F)[C@@H](O)C[C@]3(C)[C@]2(C(=O)CCl)O1 [Halcinonide]
Result block: 1

###

Answer each item with its documented cell-surface Lgr5 expression.
Tested on: Lgr5 (MarsCy1-Lgr5-EGFP, U2OS)
ASSAY_NOTES: cell-surface Lgr5 expression (SCi1 fluorescence, background-subtracted) relative to WT DMSO (fold of DMSO control); higher = more Lgr5 at the plasma membrane, active = hit call of the paper
STATED_CONDITIONS: U2OS MarsCy1-Lgr5-EGFP stable; treatment time: overnight; 16 µM; library: Johns Hopkins Clinical Compound Library
Structures can show the parent of a compound that is named as a salt. Hit rate of the full screen: of about 1,200 compounds, about 50 (4%) showed activity. The entries come from a sample that favours actives as a whole.
Reply with just the number.

Given item CCCCOC(=O)c1ccc(N)cc1 [Butamben (n-butyl p aminobenzoate)] , the value recorded as its cell-surface Lgr5 expression is 1

Given item O=C([O-])[O-].[Li+].[Li+] [Lithium carbonate] , the value recorded as its cell-surface Lgr5 expression is 0.278

Given item O[C@@H]1[C@H](O)[C@@H](O)C=C[C@H]1O , the value recorded as its cell-surface Lgr5 expression is 1.03

Given item CCCCOc1ccc(CC(=O)NO)cc1 , the value recorded as its cell-surface Lgr5 expression is 1.82

Given item C=CCSCC1Nc2cc(Cl)c(S(N)(=O)=O)cc2S(=O)(=O)N1 (stereo not drawn) [Althiazide] , the value recorded as its cell-surface Lgr5 expression is 1.27

Given item Cc1scc2c1N(C(=O)CN1CCN(C)CC1)c1ccccc1NC2=O [Telenzepine] , the value recorded as its cell-surface Lgr5 expression is 1.3

Given item Cc1ncc(CSSCc2cnc(C)c(O)c2CO)c(CO)c1O , the value recorded as its cell-surface Lgr5 expression is 1.16

Given item CCCCCCN(C)C , the value recorded as its cell-surface Lgr5 expression is 1.05

Given item O=S(=O)([O-])[O-].[Fe+2] [Ferrous sulfate] , the value recorded as its cell-surface Lgr5 expression is 0.888

Given item CN1C(CCl)Nc2cc(Cl)c(S(N)(=O)=O)cc2S1(=O)=O (stereo not drawn) [Methyclothiazide] , the value recorded as its cell-surface Lgr5 expression is 0.905

Given item NS(=O)(=O)c1cc2c(cc1Cl)NC(C(Cl)Cl)NS2(=O)=O (stereo not drawn) [Trichlormethiazide] , the value recorded as its cell-surface Lgr5 expression is 1.44

Given item Nc1ccc2cc3ccc(N)cc3nc2c1 [Proflavine hemisulfate salt hydrate, powder] , the value recorded as its cell-surface Lgr5 expression is 1.06

Given item Cc1cc(O)c(C(=O)N[C@@H](C(=O)N[C@@H]2C(=O)N3C(C(=O)O)=C(CSc4nnnn4C)CS[C@H]23)c2ccc(O)cc2)cn1 [Cefpiramide] , the value recorded as its cell-surface Lgr5 expression is 0.869

Given item COc1cccc2c1C(=O)c1c(O)c3c(c(O)c1C2=O)C[C@@](O)(C(=O)CO)C[C@@H]3O[C@H]1C[C@H](N)[C@@H](O)[C@H](C)O1 [Epirubicin] , the value recorded as its cell-surface Lgr5 expression is 1.31

Given item O=C([O-])CC(O)(CC(=O)[O-])C(=O)[O-].[Li+].[Li+].[Li+] [Tri-lithium citrate] , the value recorded as its cell-surface Lgr5 expression is 1.06

Given item O=S(=O)(O)CCS [Mesna (2-Mercaptoethane Sulfonic Acid Sodium Salt)] , the value recorded as its cell-surface Lgr5 expression is 0.815

Given item CC(C)NCC(O)COc1cccc2ccccc12 (stereo not drawn) , the value recorded as its cell-surface Lgr5 expression is 1.07

Given item CC1(C)S[C@@H]2[C@H](NC(=O)COc3ccccc3)C(=O)N2[C@H]1C(=O)O.CN(C)[C@@H]1C(O)=C(C(=O)NCN2CCN(CCO)CC2)C(=O)[C@@]2(O)C(O)=C3C(=O)c4c(O)cccc4[C@@](C)(O)[C@H]3C[C@@H]12 [Penimepicycline] , the value recorded as its cell-surface Lgr5 expression is 0.846

Given item O=C(Nc1ccccc1)c1cc(Cl)ccc1O [5-Chlorosalicylanilide] , the value recorded as its cell-surface Lgr5 expression is 1.12

Given item Cc1cc2nc3c(=O)[nH]c(=O)nc-3n(C[C@H](O)[C@H](O)[C@H](O)COP(=O)(O)OP(=O)(O)OC[C@H]3O[C@@H](n4cnc5c(N)ncnc54)[C@H](O)[C@@H]3O)c2cc1C [Flavin adenine dinucleotide] , the value recorded as its cell-surface Lgr5 expression is 1.01

Given item CC1(C)S[C@@H]2[C@H](NC(=O)C3(N)CCCCC3)C(=O)N2[C@H]1C(=O)O , the value recorded as its cell-surface Lgr5 expression is 0.994

Given item CC1=C(C/C=C(\C)CCC[C@H](C)CCC[C@H](C)CCCC(C)C)C(=O)c2ccccc2C1=O , the value recorded as its cell-surface Lgr5 expression is 0.865

Given item CCOc1ccc(NC(C)=O)cc1 , the value recorded as its cell-surface Lgr5 expression is 1.24

Given item O=P([O-])([O-])O.[K+].[K+] [Potassium phosphate dibasic] , the value recorded as its cell-surface Lgr5 expression is 1.09

Given item [Na+].[O]=[Bi](=[O])[O-] [Sodium bismuthate] , the value recorded as its cell-surface Lgr5 expression is 0.965

Given item NC(=O)N[C@@H](CCC(=O)O)C(=O)O , the value recorded as its cell-surface Lgr5 expression is 1.08

Given item O=S(=O)(O)CCS [Mesna (2-Mercaptoethanesulfonic acid)] , the value recorded as its cell-surface Lgr5 expression is 0.844

Given item [I-].[Na+] [Sodium iodide] , the value recorded as its cell-surface Lgr5 expression is 1.13

Given item COc1ccc2[nH]c([S+]([O-])Cc3ncc(C)c(OC)c3C)nc2n1 (stereo not drawn) , the value recorded as its cell-surface Lgr5 expression is 1.17

Given item Cc1onc(-c2ccccc2)c1C(=O)N[C@@H]1C(=O)N2[C@@H]1SC(C)(C)[C@@H]2C(=O)O , the value recorded as its cell-surface Lgr5 expression is 0.726

Given item NC[C@H]1O[C@H](O[C@H]2[C@H](O)[C@@H](O[C@H]3O[C@H](CO)[C@@H](O)[C@H](N)[C@H]3O)[C@H](N)C[C@@H]2N)[C@H](N)[C@@H](O)[C@@H]1O [Kanamycin B sulfate salt] , the value recorded as its cell-surface Lgr5 expression is 0.875

Given item C=CC(N)CCC(=O)O (stereo not drawn) , the value recorded as its cell-surface Lgr5 expression is 1.52

Given item COC1=C(OC)C(=O)C(CCCCCCCCCCO)=C(C)C1=O , the value recorded as its cell-surface Lgr5 expression is 1.04
